tested on: SH-SY5Y; assay: Neuroprotective activity against Abeta (25 to 35)-induced cytotoxicity in human SH-SY5Y cells at 0.0032 to 2 uM pre-incubated for 2 hrs before Abeta (25 to 35) addition for 14 hrs by MTT assay relative to untreated control; assay type: functional
readout.kind: Activity

> print(dat)
                                    molecule  assay.system  readout.kind  result
 1  COc1ccc([C@H]2O[C@H](c3ccc(OC)c(OC)c3)[C@@H](C)[C@H]2C)cc1OC [GANSCHISANDRINE]       SH-SY5Y      Activity    >15%
 2  COc1ccc([C@H]2O[C@@H](c3ccc(OC)c(OC)c3)[C@H](C)[C@@H]2C)cc1OC [GALGRAVIN]       SH-SY5Y      Activity    >15%
 3  COc1cc(C[C@H](C)[C@H](COC(C)=O)Cc2ccc3c(c2)OCO3)ccc1O       SH-SY5Y      Activity    >15%
 4  C[C@@H]1[C@@H](CO)[C@H](c2ccc3c(c2)OCO3)O[C@H]1c1ccc2c(c1)OCO2       SH-SY5Y      Activity    >15%
 5  COc1cc([C@H]2c3cc4c(cc3C[C@@H](C)[C@@H]2C)OCO4)ccc1O       SH-SY5Y      Activity    >15%
 6  COc1cc([C@H]2O[C@@H](c3ccc4c(c3)OCO4)[C@H](C)[C@H]2COC(C)=O)ccc1O       SH-SY5Y      Activity    >15%
 7  COc1cc(C[C@H](C)[C@H](CO)Cc2ccc3c(c2)OCO3)ccc1O       SH-SY5Y      Activity    >15%
 8  COc1ccc([C@@H]2O[C@@H](c3ccc(O)c(OC)c3)[C@@H](C)[C@H]2C)cc1O       SH-SY5Y      Activity    >15%
 9  COc1ccc(C(=O)O[C@H](c2ccc(OC)c(OC)c2)[C@@H](C)C(C)=O)cc1OC       SH-SY5Y      Activity    >15%
10  COc1cc(C[C@@H](C)[C@H](C)[C@@H](O)c2ccc3c(c2)OCO3)ccc1O       SH-SY5Y      Activity    >15%
11  C=C(Cc1ccc2c(c1)OCO2)[C@H](C)Cc1ccc(O)c(OC)c1       SH-SY5Y      Activity    >15%
12  COc1cc(C[C@@H](COC(C)=O)[C@@H](C)Cc2ccc(O)c(OC)c2)ccc1O       SH-SY5Y      Activity    >15%
